Provenance of the data: ChEMBL document CHEMBL1811881

# reported inhibition; entries follow
target: 17-beta-hydroxysteroid dehydrogenase type 3 (Homo sapiens) (UniProt P37058); test: Inhibition of 17Beta-HSD3 expressed in homogenized HEK293 cells assessed as transformation of [14C]-4-androstene-3,17-dione into [14C]-testosterone in presence of NADPH at 0.01 uM; format: cell-based
Sequence (P37058 whole entry): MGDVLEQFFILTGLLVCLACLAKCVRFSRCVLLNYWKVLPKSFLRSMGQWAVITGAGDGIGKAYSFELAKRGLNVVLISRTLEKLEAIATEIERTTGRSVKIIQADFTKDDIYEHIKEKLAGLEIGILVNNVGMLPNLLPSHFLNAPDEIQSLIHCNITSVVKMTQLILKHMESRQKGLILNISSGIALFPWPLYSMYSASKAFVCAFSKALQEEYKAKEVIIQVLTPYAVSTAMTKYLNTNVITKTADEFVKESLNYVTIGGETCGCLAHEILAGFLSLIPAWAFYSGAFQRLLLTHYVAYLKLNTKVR
Supply the numeric figure in %, leaving out any unit text.

>  <testSmiles>
CN(Cc1ccccc1)C[C@@]1(O)CC[C@@]2(C)[C@@H](CC[C@@H]3[C@@H]2CC[C@]2(C)C(=O)CC[C@@H]32)C1

>  <unitOfMeasure>
%

>  <inhibition>
28

$$$$
>  <testSmiles>
Cc1cccc(OCCN2C[C@]3(CC[C@@]4(C)[C@@H](CC[C@@H]5[C@@H]4CC[C@]4(C)C(=O)CC[C@@H]54)C3)OC2=O)c1

>  <unitOfMeasure>
%

>  <inhibition>
13

$$$$
>  <testSmiles>
CCCCN(CCCC)C[C@@]1(O)CC[C@@]2(C)[C@@H](CC[C@@H]3[C@@H]2CC[C@]2(C)C(=O)CC[C@@H]32)C1

>  <unitOfMeasure>
%

>  <inhibition>
13

$$$$
>  <testSmiles>
C[C@]12CC[C@@]3(C[C@@H]1CC[C@@H]1[C@@H]2CC[C@]2(C)C(=O)CC[C@@H]12)CN(CCN1CCCCC1)C(=O)O3

>  <unitOfMeasure>
%

>  <inhibition>
0

$$$$
>  <testSmiles>
CCN(CCN1C[C@]2(CC[C@@]3(C)[C@@H](CC[C@@H]4[C@@H]3CC[C@]3(C)C(=O)CC[C@@H]43)C2)OC1=O)Cc1ccccc1

>  <unitOfMeasure>
%

>  <inhibition>
14

$$$$

// lookup inhibition | system=17-beta-hydroxysteroid dehydrogenase type 3 (Homo sapiens) (UniProt P37058) | key= C[C@]12CC[C@](O)(CN3CCN(Cc4ccc(C(F)(F)F)cc4C(F)(F)F)CC3)C[C@@H]1CC[C@@H]1[C@@H]2CC[C@]2(C)C(=O)CC[C@@H]12
22

Entry C[C@]12CC[C@](O)(CN3CCN(C(=O)c4ccc(C(F)(F)F)cc4)CC3)C[C@@H]1CC[C@@H]1[C@@H]2CC[C@]2(C)C(=O)CC[C@@H]12 , system 17-beta-hydroxysteroid dehydrogenase type 3 (Homo sapiens) (UniProt P37058): what inhibition was measured?
22

Lookup: inhibition / 17-beta-hydroxysteroid dehydrogenase type 3 (Homo sapiens) (UniProt P37058) / C[C@@H]1CN(Cc2cc(C(F)(F)F)cc(C(F)(F)F)c2)[C@@H](C)CN1C[C@@]1(O)CC[C@@]2(C)[C@@H](CC[C@@H]3[C@@H]2CC[C@]2(C)C(=O)CC[C@@H]32)C1
25

Tell me reported inhibition for C[C@]12CC[C@](O)(CN3CCN(Cc4cc(C(F)(F)F)cc(C(F)(F)F)c4)CC3)C[C@@H]1CC[C@@H]1[C@@H]2CC[C@]2(C)C(=O)CC[C@@H]12 , tested with 17-beta-hydroxysteroid dehydrogenase type 3 (Homo sapiens) (UniProt P37058).
25

Under 17-beta-hydroxysteroid dehydrogenase type 3 (Homo sapiens) (UniProt P37058): inhibition value of C[C@]12CC[C@](O)(CN3CCC(Cc4ccccc4)CC3)C[C@@H]1CC[C@@H]1[C@@H]2CC[C@]2(C)C(=O)CC[C@@H]12 ?
40
